assay: Pharmacokinetics of HLJDD components in rat plasma after oral administration of HLJDD (LC-QqQ-MS, non-compartmental); format: in vivo, Sprague-Dawley rats; conditions: normal rats (group B), oral HLJDD extract, crude material 3.5 g/kg, plasma, n = 6
assay readout: Tmax1 (min)
Write down the numeric answer in min and omit the unit.

Some compounds with recorded Tmax1:
| compound | observed measurement |
| --- | --- |
| COc1ccc2cc3[n+](cc2c1OC)CCc1cc2c(cc1-3)OCO2 | 36 |
| COC(=O)C1=CO[C@@H](O[C@@H]2O[C@H](CO)[C@@H](O)[C@H](O)[C@H]2O)[C@@H]2C(CO)=CC[C@H]12 [geniposide] | 42 |
| COc1c(O)cc2oc(-c3ccccc3)cc(=O)c2c1O | 4.8 |

INPUT: Any idea what its Tmax1 is? The compound is "O=C(O)[C@H]1O[C@@H](Oc2cc3oc(-c4ccccc4)cc(=O)c3c(O)c2O)[C@H](O)[C@@H](O)[C@@H]1O"
OUTPUT: 5.4

###

test: Pharmacokinetics of HLJDD components in rat plasma after oral administration of HLJDD (LC-QqQ-MS, non-compartmental); format: in vivo, Sprague-Dawley rats; conditions: inflamed vs normal rats, oral HLJDD extract
assay readout: mean AUClast, fold larger in the inflamed group than in the control group (fold)
Write down the numeric answer in fold and omit the unit.

| compound | unit of measure | observed measurement |
| --- | --- | --- |
| COc1ccc2cc3[n+](cc2c1OC)CCc1cc2c(cc1-3)OCO2 [berberine] | fold | 2.1 |
| COc1c(O)cc(O)c2c(=O)cc(-c3ccccc3)oc12 [wogonin] | fold | 5.4 |
| COC(=O)C1=CO[C@@H](O[C@@H]2O[C@H](CO)[C@@H](O)[C@H](O)[C@H]2O)[C@@H]2C(CO)=CC[C@H]12 [geniposide] | fold | 2.9 |
| COc1ccc2c(c1O)-c1c(O)c(OC)cc3c1[C@H](C2)[N+](C)(C)CC3 [magnolflorine] | fold | 1.6 |

Let's switch to this compound now.
INPUT: Any idea what its mean AUClast, fold larger in the inflamed group than in the control group is? The compound is O=C(O)[C@H]1O[C@@H](Oc2cc3oc(-c4ccccc4)cc(=O)c3c(O)c2O)[C@H](O)[C@@H](O)[C@@H]1O [baicalin]
OUTPUT: 2.0

###

experiment: Pharmacokinetics of HLJDD components in rat plasma after oral administration of HLJDD (LC-QqQ-MS, non-compartmental); type: in vivo, Sprague-Dawley rats; conditions: normal rats (group B), oral HLJDD extract, crude material 3.5 g/kg, plasma, n = 6
Hi! Just check whether HLλz is below 2 h. Below gives Fulfilled, equal or above gives Not fulfilled.

| compound | assigned label |
| --- | --- |
| COc1c(O)cc(O)c2c(=O)cc(-c3ccccc3)oc12 | Not fulfilled |
| COc1c(O[C@@H]2O[C@H](C(=O)O)[C@@H](O)[C@H](O)[C@H]2O)cc(O)c2c(=O)cc(-c3ccccc3)oc12 [wogonoside] | Not fulfilled |

INPUT: Check if HLλz falls below 2 h for "COc1c(O)cc2oc(-c3ccccc3)cc(=O)c2c1O" .
OUTPUT: Fulfilled

INPUT: // next record "COc1ccc2c(c1O)-c1c(O)c(OC)cc3c1[C@H](C2)[N+](C)(C)CC3"
OUTPUT: Fulfilled

INPUT: // next record COc1c(O[C@@H]2O[C@H](C(=O)O)[C@@H](O)[C@H](O)[C@H]2O)cc2oc(-c3ccccc3)cc(=O)c2c1O [oroxylin A-7-O-glucuronide]
OUTPUT: Not fulfilled

INPUT: // next record COC(=O)C1=CO[C@@H](O[C@@H]2O[C@H](CO)[C@@H](O)[C@H](O)[C@H]2O)[C@@H]2C(CO)=CC[C@H]12 [geniposide]
OUTPUT: Fulfilled

INPUT: // next record "O=C(O)[C@H]1O[C@@H](Oc2cc3oc(-c4ccccc4)cc(=O)c3c(O)c2O)[C@H](O)[C@@H](O)[C@@H]1O"
OUTPUT: Fulfilled

INPUT: // next record "COc1ccc2cc3[n+](cc2c1OC)CCc1cc2c(cc1-3)OCO2"
OUTPUT: Not fulfilled

###

compounds and their reported AUC%Extrap
test: Pharmacokinetics of HLJDD components in rat plasma after oral administration of HLJDD (LC-QqQ-MS, non-compartmental); format: in vivo, Sprague-Dawley rats; settings: inflamed rats (group M), oral HLJDD extract, crude material 3.5 g/kg, plasma, n = 6
Write down the numeric answer in % and omit the unit.

Some compounds with recorded AUC%Extrap:
| compound | AUC%Extrap [%] |
| --- | --- |
| COc1c(O)cc(O)c2c(=O)cc(-c3ccccc3)oc12 | 1.3 |
| COc1ccc2c(c1O)-c1c(O)c(OC)cc3c1[C@H](C2)[N+](C)(C)CC3 | 17.6 |
| COc1c(O)cc2oc(-c3ccccc3)cc(=O)c2c1O | 13.4 |

INPUT: Any idea what its AUC%Extrap is? The compound is COc1c(O[C@@H]2O[C@H](C(=O)O)[C@@H](O)[C@H](O)[C@H]2O)cc(O)c2c(=O)cc(-c3ccccc3)oc12 [wogonoside]
OUTPUT: 17.3

###

assay: Pharmacokinetics of HLJDD components in rat plasma after oral administration of HLJDD (LC-QqQ-MS, non-compartmental); format: in vivo, Sprague-Dawley rats; details: inflamed rats (group M), oral HLJDD extract, crude material 3.5 g/kg, plasma, n = 6
Hi! Just check whether Tmax1 is below 6 min. Below gives True, equal or above gives False.

Recorded results for 6 compounds are shown here.
| compound | assigned label |
| --- | --- |
| COc1c(O)cc2oc(-c3ccccc3)cc(=O)c2c1O | True |
| COc1c(O[C@@H]2O[C@H](C(=O)O)[C@@H](O)[C@H](O)[C@H]2O)cc2oc(-c3ccccc3)cc(=O)c2c1O [oroxylin A-7-O-glucuronide] | True |
| COc1c(O)cc(O)c2c(=O)cc(-c3ccccc3)oc12 | True |
| COc1ccc2cc3[n+](cc2c1OC)CCc1cc2c(cc1-3)OCO2 | False |
| COc1c(O[C@@H]2O[C@H](C(=O)O)[C@@H](O)[C@H](O)[C@H]2O)cc(O)c2c(=O)cc(-c3ccccc3)oc12 [wogonoside] | False |
| COc1ccc2c(c1O)-c1c(O)c(OC)cc3c1[C@H](C2)[N+](C)(C)CC3 | False |

Pending compound:
INPUT: Check if Tmax1 falls below 6 min for COC(=O)C1=CO[C@@H](O[C@@H]2O[C@H](CO)[C@@H](O)[C@H](O)[C@H]2O)[C@@H]2C(CO)=CC[C@H]12 [geniposide] .
OUTPUT: False

###

test: Pharmacokinetics of HLJDD components in rat plasma after oral administration of HLJDD (LC-QqQ-MS, non-compartmental); assay type: in vivo, Sprague-Dawley rats; conditions: male, Sprague-Dawley, rat, plasma, po, 3.5 g/kg, inflamed rats (group M), oral HLJDD extract, crude material 3.5 g/kg, plasma, n = 6
assay readout: MRT last (h)
Write down the numeric answer in h and omit the unit.

Some compounds with recorded MRT last:
| compound | MRT last, h |
| --- | --- |
| COc1ccc2cc3[n+](cc2c1OC)CCc1cc2c(cc1-3)OCO2 [berberine] | 8.4 |
| COc1c(O)cc2oc(-c3ccccc3)cc(=O)c2c1O [oroxylin A] | 16.5 |
| COc1c(O)cc(O)c2c(=O)cc(-c3ccccc3)oc12 [wogonin] | 11 |

Let's switch to this compound now.
INPUT: Any idea what its MRT last is? The compound is O=C(O)[C@H]1O[C@@H](Oc2cc3oc(-c4ccccc4)cc(=O)c3c(O)c2O)[C@H](O)[C@@H](O)[C@@H]1O [baicalin]
OUTPUT: 10.1

###

assay: Pharmacokinetics of HLJDD components in rat plasma after oral administration of HLJDD (LC-QqQ-MS, non-compartmental); format: in vivo, Sprague-Dawley rats; conditions: male, Sprague-Dawley, rat, plasma, po, 3.5 g/kg, normal rats (group B), oral HLJDD extract, crude material 3.5 g/kg, plasma, n = 6; read-out: Vz/F
assay readout: Vd/F (L/kg)
Write down the numeric answer in L/kg and omit the unit.

| molecule | Vd/F (L/kg) |
| --- | --- |
| O=C(O)[C@H]1O[C@@H](Oc2cc3oc(-c4ccccc4)cc(=O)c3c(O)c2O)[C@H](O)[C@@H](O)[C@@H]1O [baicalin] | 39.6 |
| COc1c(O)cc2oc(-c3ccccc3)cc(=O)c2c1O [oroxylin A] | 2500 |

Let's switch to this molecule now.
INPUT: Any idea what its Vd/F is? The molecule is COc1c(O)cc(O)c2c(=O)cc(-c3ccccc3)oc12 [wogonin]
OUTPUT: 4010

###

experiment: Hepatic first-pass effect / hepatic clearance rate (jugular vs pyloric vein AUC0-t) in inflamed rats; assay type: in vivo, Sprague-Dawley rats; settings: inflamed rats (G5, n = 5), oral HLJDD; HCR% = 100×(AUC0−t pyloric vein − AUC0−t jugular vein)/AUC0−t pyloric vein
compounds and their reported hepatic clearance rate (HCR)
Write down the numeric answer in % and omit the unit.

| compound | hepatic clearance rate (HCR) [%] |
| --- | --- |
| COC(=O)C1=CO[C@@H](O[C@@H]2O[C@H](CO[C@@H]3O[C@H](CO)[C@@H](O)[C@H](O)[C@H]3O)[C@@H](O)[C@H](O)[C@H]2O)[C@@H]2C(CO)=CC[C@H]12 [I3, genipin-1-gentiobioside] | -156.6 |

Let's switch to this compound now.
INPUT: Any idea what its hepatic clearance rate (HCR) is? The compound is COC(=O)C1=CO[C@@H](O[C@@H]2O[C@H](CO)[C@@H](O)[C@H](O)[C@H]2O)[C@H]2[C@@H]1C=C[C@@]2(O)CO [I1, gardenoside]
OUTPUT: -43.7
